Catalogue of IC50 readings, one per entry.
Target: Fibronectin receptor (human, UniProt P08648 42-1049; P05556 21-798)
Sequence (P08648 42-1049, chain 1 of 2): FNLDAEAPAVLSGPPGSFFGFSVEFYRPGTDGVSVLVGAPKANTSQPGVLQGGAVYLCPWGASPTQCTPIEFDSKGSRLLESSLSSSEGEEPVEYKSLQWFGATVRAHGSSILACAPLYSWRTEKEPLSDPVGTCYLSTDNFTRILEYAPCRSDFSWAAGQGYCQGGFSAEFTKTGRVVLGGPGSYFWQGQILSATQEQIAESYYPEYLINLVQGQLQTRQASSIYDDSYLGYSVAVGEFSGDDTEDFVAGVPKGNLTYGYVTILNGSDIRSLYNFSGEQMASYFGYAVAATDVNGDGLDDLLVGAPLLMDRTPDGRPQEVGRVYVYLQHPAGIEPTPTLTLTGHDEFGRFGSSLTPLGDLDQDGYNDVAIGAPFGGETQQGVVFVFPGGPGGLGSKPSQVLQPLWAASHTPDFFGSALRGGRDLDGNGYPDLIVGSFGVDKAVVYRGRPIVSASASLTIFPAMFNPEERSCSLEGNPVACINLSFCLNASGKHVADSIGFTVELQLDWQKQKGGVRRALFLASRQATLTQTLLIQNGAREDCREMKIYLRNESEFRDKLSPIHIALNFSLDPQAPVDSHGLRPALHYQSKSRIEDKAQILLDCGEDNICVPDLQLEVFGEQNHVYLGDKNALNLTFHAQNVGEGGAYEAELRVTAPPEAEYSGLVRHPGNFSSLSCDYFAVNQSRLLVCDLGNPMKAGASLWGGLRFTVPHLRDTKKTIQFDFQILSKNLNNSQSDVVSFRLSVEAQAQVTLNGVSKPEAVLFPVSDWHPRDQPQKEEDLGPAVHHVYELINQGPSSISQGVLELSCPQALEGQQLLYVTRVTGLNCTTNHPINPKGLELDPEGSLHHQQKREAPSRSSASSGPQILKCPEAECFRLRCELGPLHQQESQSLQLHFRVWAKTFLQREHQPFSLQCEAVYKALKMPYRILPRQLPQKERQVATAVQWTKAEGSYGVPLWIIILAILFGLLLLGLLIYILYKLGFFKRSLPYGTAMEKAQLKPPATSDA
Sequence (P05556 21-798, chain 2 of 2): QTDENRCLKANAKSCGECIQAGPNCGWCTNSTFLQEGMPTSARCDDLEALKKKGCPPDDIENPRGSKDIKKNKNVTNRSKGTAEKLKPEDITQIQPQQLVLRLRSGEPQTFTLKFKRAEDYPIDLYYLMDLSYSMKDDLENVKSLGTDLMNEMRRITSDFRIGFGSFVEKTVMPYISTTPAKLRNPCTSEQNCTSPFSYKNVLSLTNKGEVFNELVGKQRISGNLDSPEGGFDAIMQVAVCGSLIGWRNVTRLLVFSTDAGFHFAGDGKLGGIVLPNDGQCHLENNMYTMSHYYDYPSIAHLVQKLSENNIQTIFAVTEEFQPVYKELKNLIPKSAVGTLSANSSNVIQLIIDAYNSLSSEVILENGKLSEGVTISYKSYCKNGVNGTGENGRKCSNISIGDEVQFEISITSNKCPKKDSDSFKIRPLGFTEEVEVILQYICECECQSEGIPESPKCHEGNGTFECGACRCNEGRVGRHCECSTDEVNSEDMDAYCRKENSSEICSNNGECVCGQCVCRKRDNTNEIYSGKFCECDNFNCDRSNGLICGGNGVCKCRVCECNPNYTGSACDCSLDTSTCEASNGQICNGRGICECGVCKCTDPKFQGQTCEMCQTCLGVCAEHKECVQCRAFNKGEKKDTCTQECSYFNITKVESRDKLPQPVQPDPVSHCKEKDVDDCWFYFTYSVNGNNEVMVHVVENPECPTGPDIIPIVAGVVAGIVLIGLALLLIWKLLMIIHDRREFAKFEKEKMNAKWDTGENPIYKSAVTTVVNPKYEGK
Assay: ELISA
Starred links: 1 amine or outer side, 2 acyl side, 3 side chain; linkers in the order of their positions; H or OH if unused. Positions of bridges follow the written chain, without caps; N, C: chain ends. Non-standard residues stand in square brackets, D forms with d. No end group written: not given here. Tyr(Me) = O-methyl-tyrosine (Y-OMe, O-Me-Tyr), COc1ccc(C[C@H](N[*:1])C(=O)[*:2])cc1; Cys(β,β-pentamethylene) = O=C([C@@H](N[*:1])C1(S[*:3])CCCCC1)[*:2]; Phe(4-I) = N[C@@H](Cc1ccc(I)cc1)C(=O)O
Readout kind: IC50 (µM)

binder="R[Cys(β,β-pentamethylene)]GHRGD[Tyr(Me)]RCR (disulfide 2-10; also: Pmc2 made from D,L-Pmc, configuration not given here) [R(Pmc)GHRGD(O-Me-Tyr)RCR]" readout_kind=IC50 test_result=0.98
binder="R[Cys(β,β-pentamethylene)]GHRGD[Phe(4-I)]RCR (disulfide 2-10; also: Pmc2 from Boc-D/L-Pmc) [R(Pmc)GHRGD(p-I-F)RCR]" readout_kind=IC50 test_result=4.19
